Data origin: PubChem BioAssay AID1159580

method notes: chemical genetic growth profiling, strain panel (AID 1159580);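 further: tested at 20 µM; growth read once vehicle control cultures reached saturation at 30 °C; 1 = growth at the plate median or of vehicle wells; lower values mean less growth of the strain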
test parameters: S. cerevisiae deletion strains, growth OD, locus YGR252W, strain gcn5, hits give low values
Out of some 5,500 compounds screened, about 2,000 (36%) were called active. About 18% were inconclusive and are not listed. The list shows a part of the results.
assay metric: normalized growth

Below are worked cases with known answers.
- COc1c(Cl)ccc(Cl)c1C(=O)O: 1.02 (inactive)
- COC(=O)c1c(C)cc(OC(=O)c2c(C)cc(O)c(C=O)c2O)c(C)c1O: 1.01 (inactive)
- O=c1cc(-c2ccccc2)oc2cc(O)c(O)c(O)c12: 0.576 (active)

Record summary for O=c1[nH]cnc2[nH]ncc12 : reported normalized growth = 0.989 (inactive)

Briefly, normalized growth measured for O=C(O)c1ccccc1C(=O)Nc1ccc(S(=O)(=O)Nc2nccs2)cc1 : 0.995 (inactive)

// normalized growth lookup, compound = NNCCc1ccccc1 , result: 0.898 (inactive)

So for NC(N)=O , the logged normalized growth turned out to be 0.986 (inactive)

# compound Cc1cc(=O)oc2c(O)c(O)ccc12 ; its normalized growth = 0.977 (inactive)

Short answer for Cc1cccc(Nc2ccncc2S(=O)(=O)NC(=O)NC(C)C)c1 : normalized growth was 1.08 (inactive)

The recorded normalized growth for CC12CC3CC(C)(C1)CC(N)(C3)C2 is 0.968 (inactive)

The reported value for CC1=C2[C@H]3OC(=O)[C@@H](C)[C@@H]3CC[C@@]2(C)C=CC1=O in terms of normalized growth is 0.991 (inactive)

CC(=O)O[C@H]1C[C@@H](OC(C)=O)C(C)(C)C2CC(=O)[C@]3(C)C(CC[C@@]4(C)[C@H](c5ccoc5)OC(=O)[C@H]5O[C@]543)[C@]21C (some centres not stated) has a reported normalized growth of 0.994 (inactive)

Record summary for CNC(=O)Oc1ccc2c(c1)[C@]1(C)CCN(C)[C@@H]1N2C : reported normalized growth = 1.03 (inactive)

normalized growth recorded for this compound, c1ccc2c(c1)CN1CCCC1=N2 , is 1.1 (inactive)

* * *

// reported normalized growth per item
method notes: chemical genetic growth profiling, strain panel (AID 1159580)
test parameters: S. cerevisiae deletion strains, growth OD, locus YJL092W, strain hpr5, hits give low values
About 2,000 (36%) of roughly 5,500 compounds were called active. Inconclusive results (about 18%) are left out. The list shows a part of the results.
Simply state the number, no unit and no words.

- Cc1cc(O)c(C=O)c2c1C(=O)Oc1c(COC(=O)/C=C/C(=O)O)c(O)c(C(=O)O)c(C)c1O2: 0.952
- COc1cc(OC)c(OC)cc1C=O: 0.995
- NC(=O)c1ncn(C2O[C@H](CO)[C@@H](O)[C@H]2O)c1N (stereo partly specified): 1.02
- NC(N)=O: 1.01
- COc1c(Cl)ccc(Cl)c1C(=O)O: 0.987

Now consider a different molecule.
// normalized growth value for O=C(O)c1ccccc1C(=O)Nc1ccc(S(=O)(=O)Nc2nccs2)cc1 : 0.983

* * *

This section presents compounds with their documented normalized growth values.
method notes: chemical genetic growth profiling, strain panel (AID 1159580)
test parameters: S. cerevisiae deletion strains, growth OD, locus YJL128C, strain PBS2, hits give low values
Out of some 5,500 compounds screened, about 2,000 (36%) were called active. Another 18% or so got no clear call; they are omitted. The list shows a part of the results.

* COc1ccc(CC2CCC(=NOC(=O)c3ccc(C(C)(C)C)cc3)CC2)cc1 (stereo unspecified) | 0.993 (inactive)
* S=C(NNc1ccccc1)Nc1cc(Cl)ccc1Cl | 0.967 (inactive)

Record O=C(Nc1ccc(Cl)cc1)O/N=C\c1ccn(-c2ccccc2)n1 . Reported normalized growth: 0.877 (inactive)

Measured normalized growth, O=C(CCn1c(=O)oc2ccccc21)Sc1ccc(C(F)(F)F)cc1 : 0.929 (inactive)

Looking up N#Cc1ccc(NC(=O)Nc2cccc3ccccc23)cc1 , I see its normalized growth listed as 0.955 (inactive)

* * *

method notes: chemical genetic growth profiling, strain panel (AID 1159580)
test parameters: S. cerevisiae deletion strains, growth OD, locus YNL128W, strain TEP1, hits give low values
Screen size: about 5,500 compounds; about 2,000 (36%) were called active. Not shown: some 18% with an inconclusive outcome. The list shows a part of the results. Where a SMILES comes first, the peptide text is derived from it.
Field 'label' (enum: 1.0 / 0.0). Set to 1.0 when normalized growth is strictly under 1; else 0.0.

Solved entries (count: 3):
• CCN(CC)CCOC(=O)C(c1ccccc1)c1ccccc1 = 1.0
• C/C(=N/Nc1c(Cl)cc(Cl)cc1Cl)c1cc(F)ccc1OC(=O)c1ccccc1F = 0.0
• O=C(O)Cc1cc(I)c(Oc2cc(I)c(O)c(I)c2)c(I)c1 = 1.0

Consider the additional molecule presented here.
// query Please determine if NCCCCC(N)C(=O)NC(Cc1ccc(O)cc1)C(=O)NC(CCCCN)C(=O)O (stereo not drawn) (H-Lys-Tyr-Lys-OH; configuration not given here) is below 1 in terms of normalized growth.
// result 0.0

* * *

method notes: chemical genetic growth profiling, strain panel (AID 1159580);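 further: tested at 20 µM; growth read once vehicle control cultures reached saturation at 30 °C; 1 = growth at the plate median or of vehicle wells; lower values mean less growth of the strain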
test parameters: S. cerevisiae deletion strains, growth OD, locus YGL227W, strain vid30, hits give low values
In all, about 5,500 compounds went through this assay and about 2,000 (36%) were called active. Inconclusive results (about 18%) are left out. Some of the results follow.
normalized growth values by entry

normalized growth in this record for CO[C@]12C[C@@H](COC(=O)c3cncc(Br)c3)CN(C)[C@@H]1Cc1cn(C)c3cccc2c13 : 0.994 (inactive)

The compound listed as O=c1cc(-c2ccccc2)oc2c(O)c(O)ccc12 shows normalized growth equal to 1 (inactive)

* * *

method notes: chemical genetic growth profiling, strain panel (AID 1159580);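 further: tested at 20 µM; growth read once vehicle control cultures reached saturation at 30 °C; 1 = growth at the plate median or of vehicle wells; lower values mean less growth of the strain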
test parameters: S. cerevisiae deletion strains, growth OD, locus YHR129C, strain ARP1, hits give low values
In all, about 5,500 compounds went through this assay and about 2,000 (36%) were called active. Roughly 18% stayed inconclusive and do not appear here. The list shows a part of the results.
assay metric: normalized growth
Please give the numeric answer without any surrounding text.

Examples with answers:
• CN(C)N=Nc1nc[nH]c1C(N)=O = 1.01
• CCCCSP(=O)(SCCCC)SCCCC = 1.02
• C[C@]12C=CC(=O)C=C1CCC1C3C[C@@H](O)[C@](O)(C(=O)CO)[C@@]3(C)C[C@H](O)[C@@]12F (stereo not given in full) = 1.02
• C[C@@H]1O[C@@H](O[C@H]2C[C@@H](O)[C@]3(CO)C4C(CC[C@]3(O)C2)[C@@]2(O)CC[C@H](C3=CC(=O)OC3)[C@@]2(C)C[C@H]4O)[C@H](O)[C@H](O)[C@H]1O (stereo not given in full) = 1.02

Lab note: next molecule to report on.
Lab note: OC1=Cc2c(O)cc(O)cc2OC1(O)c1ccc(O)c(O)c1 (stereo not given) gave normalized growth of 0.985

* * *

method notes: chemical genetic growth profiling, strain panel (AID 1159580);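 further: tested at 20 µM; growth read once vehicle control cultures reached saturation at 30 °C; 1 = growth at the plate median or of vehicle wells; lower values mean less growth of the strain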
test parameters: S. cerevisiae deletion strains, growth OD, locus YML120C, strain ndi1, hits give low values
Screen size: about 5,500 compounds; about 2,000 (36%) were called active. About 18% were inconclusive and are not listed. The list shows a part of the results.
Consider the following compounds and their measured normalized growth readings.

* COc1ccc(C(=O)CC(=O)c2ccc(C(C)(C)C)cc2)cc1 | 1 (inactive)
* CC1CCC2(OC1)OC1CC3C4CCC5C[C@@H](O)CCC5(C)C4=CCC3(C)C1[C@@H]2C (stereo partly drawn) | 0.99 (inactive)
* CC(CN1c2ccccc2Sc2ccccc21)N(C)C (stereo not drawn) | 0.921 (inactive)
* Cc1cc(O)c(C=O)c2c1C(=O)Oc1c(COC(=O)/C=C/C(=O)O)c(O)c(C(=O)O)c(C)c1O2 | 1 (inactive)
* CC1=C2[C@H]3OC(=O)[C@@H](C)[C@@H]3CC[C@@]2(C)C=CC1=O | 1.01 (inactive)
* Cc1cc(C)cc(OCC2CNC(=O)O2)c1 (stereo not drawn) | 0.984 (inactive)
* CSc1ccc2c(c1)N(CCC1CCCCN1C)c1ccccc1S2 (stereo not drawn) | 0.971 (inactive)
* COc1ccc(C(=O)N2CCCC2=O)cc1 | 0.94 (inactive)
* NC(N)=O | 1.03 (inactive)
* CC(CN(C)C)CN1c2ccccc2CCc2ccccc21 (stereo not drawn) | 0.971 (inactive)

Measured normalized growth, CCCCCC1C(=O)CCC1CC(=O)OC (stereo not drawn) : 0.994 (inactive)

The compound identified as COc1cc([C@H]2Oc3cc([C@H]4Oc5cc(O)cc(O)c5C(=O)[C@@H]4O)ccc3O[C@@H]2CO)ccc1O registered its normalized growth at 1.01 (inactive)

// field: normalized growth; key: CC1(C)C(O)CC(O)C2(C)C1CC(O)C1(C)C2CCC2(C)C(c3ccoc3)OC(=O)C3OC321 (stereo not drawn) ; value = 0.991 (inactive)
